Test system: VIM-2 metallo-beta-lactamase (Pseudomonas aeruginosa)
Experiment: VIM-2 metallo-beta-lactamase inhibitors, confirmation, biochemical, epi-absorbance, hits shared with IMP-1 screen (AID 2187);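 further: 0% = VIM-2 with DMSO and 100% = buffer wells without enzyme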
Details: purified VIM-2, nitrocefin hydrolysis, at 5.6 µM, active compounds read high
The whole screen tested about 1,300 compounds, of which about 1,200 (92%) were called active. So high a share suggests a set chosen from earlier hits. These entries were drawn from the full list.
Reported metric: inhibition (%)
Expressed in %, but write only the number.

What measured inhibition goes with CCOc1cc(/C=C2\SC(N3CCCCC3)=NC2=O)ccc1O ?
19

What measured inhibition goes with CC(C)(C)CC(=O)Nc1nnc(SCC(=O)NCc2cccs2)s1 ?
27.4

What measured inhibition goes with O=C(NC(=S)Nc1ccccc1C(=O)O)c1ccc(-c2ccc(Br)cc2)o1 ?
8.47

What measured inhibition goes with Cc1cc([N+](=O)[O-])c(-c2ccc(/C=N/n3cnnc3)o2)cc1Cl ?
67.5

What measured inhibition goes with COC(=O)c1ccc(-c2noc(CN(Cc3ccccn3)CC3CCCO3)n2)cc1 (stereo unspecified) ?
26.8

What measured inhibition goes with CCOC(=O)N1CCN(C(=O)C2CCN(c3ncnc4c3sc3cccc(F)c34)CC2)CC1 ?
22

What measured inhibition goes with O=C1Nc2cc(C(=O)N3CCC(N4CCCCC4)CC3)ccc2S/C1=C\c1ccccc1 ?
38.5

What measured inhibition goes with Clc1cc(-c2ccc(/C=N/n3cnnc3)o2)ccc1Br ?
57

What measured inhibition goes with Cc1cc(-c2ccc(/C=N/n3cnnc3)o2)c([N+](=O)[O-])cc1C ?
69.9

What measured inhibition goes with COc1ccc(-c2nn3c(-c4ccccc4)nnc3s2)cc1OC ?
34.6

What measured inhibition goes with C=CCn1c(-c2ccccc2OCC)n[nH]c1=S ?
24.7

###

Test system: VIM-2 metallo-beta-lactamase (Pseudomonas aeruginosa)
Assay: VIM-2 metallo-beta-lactamase inhibitors, confirmation, biochemical, epi-absorbance, hits shared with IMP-1 screen (AID 2187);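 further: 0% = VIM-2 with DMSO and 100% = buffer wells without enzyme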
Details: purified VIM-2, nitrocefin hydrolysis, at 5.6 µM
The whole screen tested about 1,300 compounds, of which about 1,200 (92%) were called active.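 Rule for the calls: active = inhibition of the VIM-2 beta-lactamase enzyme above about 11% from the earlier first-round screen (limit read from the data); inactive = the rest.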 The set was probably picked from earlier hits. Only a sample is shown.
Pick one: active, inactive

Assay outcome for CCN1CCN(C(=O)Cn2nc(C)n3c(cc4c(OC)cccc43)c2=O)CC1 : what was it?
active

Assay outcome for Cc1nc2ccccc2c2oc(C(=O)NCCCN3CCC(C)CC3)cc12 : what was it?
active

Assay outcome for COC(=O)c1c(NC(=O)c2ccc(S(=O)(=O)N3CCOCC3)cc2)sc2c1CCN(C(C)C)C2 : what was it?
active

Assay outcome for Cc1cc(NCc2ccco2)n2c(nc3ccccc32)c1C#N : what was it?
active

Assay outcome for COc1ccc(/C=N/N(C)C2=NS(=O)(=O)c3ccccc32)cc1OC : what was it?
active

Assay outcome for Cc1cccn2c(=O)c(C=O)c(Nc3ccc(S(N)(=O)=O)cc3)nc12 : what was it?
active

Assay outcome for Cn1c2ccccc2c(=O)c2c(O)cccc21 : what was it?
active

Assay outcome for CCC1CCCCN1CCCNC(=O)c1cc2c(Cl)nc3ccccc3c2s1 (stereo not drawn) : what was it?
active

Assay outcome for CC(=O)c1ccc(-c2ccc(Cn3c(C)nc4cc(N)c(C)nc43)cc2)cc1 : what was it?
active

Assay outcome for Cc1ccc2nc(C)c3c(c2c1)N(c1ccccc1)CC3 : what was it?
active

Assay outcome for CCOCCCNc1c(CC)c(C)c(C#N)c2nc3ccccc3n12 : what was it?
active

Assay outcome for CCc1cc(=O)oc2cc(C)cc(OCC(=O)N3CCC[C@@H]3C(=O)O)c12 : what was it?
active

Assay outcome for CCCc1ccc(OCCNC(=O)c2ccco2)cc1 : what was it?
inactive

Assay outcome for COc1ccc(Cc2nnc(NS(=O)(=O)Cc3ccccc3)s2)cc1 : what was it?
active

Assay outcome for NC(=O)C1CCN(C(=O)COc2ccc3c4c(c(=O)oc3c2)CCC4)CC1 : what was it?
active

Assay outcome for CN1CCN(c2ccc(NC(=O)c3ccc4c(c3)[nH]c(=O)n4Cc3ccc(F)cc3)cc2)CC1 : what was it?
active

Assay outcome for COc1ccc(Nc2cc(C)nc(-n3nc(C)cc3C)n2)cc1 : what was it?
active

Assay outcome for Cc1cc(C)c2nc3nc(C)cc(C)c3c(N)c2c1 : what was it?
active
